measured_target: human MAP Kinase-Activated Protein Kinase 5 (MAPKAPK5), MAPKAPK5 (gene 8550) (UniProt Q8IW41)
Sequence (Q8IW41 whole entry, looked up): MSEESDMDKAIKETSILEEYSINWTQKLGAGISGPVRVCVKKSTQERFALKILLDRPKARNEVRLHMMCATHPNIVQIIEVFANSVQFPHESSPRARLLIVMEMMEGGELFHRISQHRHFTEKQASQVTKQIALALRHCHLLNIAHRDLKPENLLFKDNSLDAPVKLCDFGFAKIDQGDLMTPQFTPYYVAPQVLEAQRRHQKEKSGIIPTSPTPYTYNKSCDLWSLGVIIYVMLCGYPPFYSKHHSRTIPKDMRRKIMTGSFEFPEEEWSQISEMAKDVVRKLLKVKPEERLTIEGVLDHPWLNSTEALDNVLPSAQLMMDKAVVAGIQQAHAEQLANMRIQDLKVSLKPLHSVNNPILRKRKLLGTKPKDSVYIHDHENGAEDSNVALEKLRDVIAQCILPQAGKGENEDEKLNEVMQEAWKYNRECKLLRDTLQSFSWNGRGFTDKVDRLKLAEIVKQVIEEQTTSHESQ
procedure_details: NVS_ENZ_hMAPKAPK5: NovaScreen (NVS) Enzymatic Assay for human MAP Kinase-Activated Protein Kinase 5 (MAPKAPK5)
Inconclusive results are not listed. Activity calls are given as the source filed them. The calls were made as follows: active = hit-call score of the fitted dose curve at least 0.9, where 1 is the maximum; inconclusive = response in the unintended direction; inactive = score below 0.9.
Possible outcomes: label 1 (active), label 0 (inactive)

>>> qualitative_label("CCCC(=NOCC)C1=C(O)CC(CC(C)SCC)CC1=O (stereo not given)")
"label 0"
>>> qualitative_label("S=C1NCCN1")
"label 0"
>>> qualitative_label("CN(C)[C@@H]1C(=O)C(C(N)=O)=C(O)[C@@]2(O)C(=O)C3=C(O)c4c(O)cccc4[C@@](C)(O)[C@H]3[C@H](O)[C@@H]12")
"label 1"
>>> qualitative_label("O=C(O)C(F)(F)C(F)(F)C(F)(F)C(F)(F)C(F)(F)C(F)(F)C(F)(F)F")
"label 0"
>>> qualitative_label("C=C(C)CN(CC)c1c([N+](=O)[O-])cc(C(F)(F)F)cc1[N+](=O)[O-]")
"label 0"
